# Run Description: Compound stability in rat liver microsomes
# Assay type: in vitro ADME
# Protocol Conditions: pH 7.4, in vivo CLint extrapolated
Given measured CLint scaled at 1 μM, output Condition met if it is greater than or equal to 100 mL/min/kg and Condition not met if not.

Compound	Assigned Label
CCCS(=O)(=O)Nc1ccc(F)c(C(=O)c2cn(COC(=O)C(C)(C)C)c3ncc(-c4ccc(Cl)cc4)cc23)c1F	Condition not met
CCCS(=O)(=O)Nc1ccc(F)c(C(=O)c2cn(COC(=O)[C@@H](N)CC(C)C)c3ncc(-c4ccc(Cl)cc4)cc23)c1F.Cl [Ex. 23, hydrochloride]	Condition met
CCCS(=O)(=O)N(C(=O)c1ccccc1)c1ccc(F)c(C(=O)c2c[nH]c3ncc(-c4ccc(Cl)cc4)cc23)c1F	Condition met
CCCS(=O)(=O)N(C(=O)OCC)c1ccc(F)c(C(=O)c2c[nH]c3ncc(-c4ccc(Cl)cc4)cc23)c1F	Condition met
CCCS(=O)(=O)Nc1ccc(F)c(C(=O)c2cn(COC(=O)[C@@H](N)C(C)CC)c3ncc(-c4ccc(Cl)cc4)cc23)c1F.Cl (some centres unmarked) [Ex. 22, hydrochloride]	Condition met

---

# Run Description: Compound stability in human liver microsomes
# Type: in vitro ADME
# Protocol Conditions: pH 7.4, read-out: Human T1/2
half-life at 1 μM values, listed per item

Compound	half-life at 1 μM (min)
CCCS(=O)(=O)Nc1ccc(F)c(C(=O)c2cn(C(C)OC(=O)C(C)C)c3ncc(-c4ccc(Cl)cc4)cc23)c1F (stereo not drawn)	33.6
CCCS(=O)(=O)Nc1ccc(F)c(C(=O)c2cn(COC(=O)[C@@H](N)C(C)CC)c3ncc(-c4ccc(Cl)cc4)cc23)c1F.Cl (stereo partly drawn)	72.8
CCCS(=O)(=O)Nc1ccc(F)c(C(=O)c2cn(COC(=O)C(N)C(C)C)c3ncc(-c4ccc(Cl)cc4)cc23)c1F.Cl (stereo not drawn)	78.8
CCCS(=O)(=O)N(C(=O)OCC)c1ccc(F)c(C(=O)c2c[nH]c3ncc(-c4ccc(Cl)cc4)cc23)c1F	28.9
CCCS(=O)(=O)Nc1ccc(F)c(C(=O)c2cn(COC(=O)[C@@H](N)CC(C)C)c3ncc(-c4ccc(Cl)cc4)cc23)c1F.Cl	113
CCCS(=O)(=O)N(C(=O)c1ccccc1)c1ccc(F)c(C(=O)c2c[nH]c3ncc(-c4ccc(Cl)cc4)cc23)c1F	59.5

---

# Run Description: Compound stability in rat liver microsomes
# Type: in vitro ADME
# Protocol Conditions: pH 7.4, read-out: Rat T1/2
half-life at 1 μM values, listed per item
Measure: half-life at 1 μM (min)

Compound	Value
CCCS(=O)(=O)N(C(=O)OCC)c1ccc(F)c(C(=O)c2c[nH]c3ncc(-c4ccc(Cl)cc4)cc23)c1F	17.5
CCCS(=O)(=O)Nc1ccc(F)c(C(=O)c2cn(COC(=O)C(C)(C)C)c3ncc(-c4ccc(Cl)cc4)cc23)c1F	53.1
CCCS(=O)(=O)N(C(=O)c1ccccc1)c1ccc(F)c(C(=O)c2c[nH]c3ncc(-c4ccc(Cl)cc4)cc23)c1F	12.8
CCCS(=O)(=O)Nc1ccc(F)c(C(=O)c2cn(COC(=O)[C@@H](N)CC(C)C)c3ncc(-c4ccc(Cl)cc4)cc23)c1F.Cl	5.8
CCCS(=O)(=O)Nc1ccc(F)c(C(=O)c2cn(COC(=O)[C@@H](N)C(C)CC)c3ncc(-c4ccc(Cl)cc4)cc23)c1F.Cl (some centres unmarked)	4.6
